system: C. elegans strains N2 and DC19; test: MMIC against C. elegans, strains N2 and DC19 reported together or strain not stated; assay type: cell-based; conditions: Caenorhabditis elegans, 48 h, C. elegans, read-out: MMIC N2 and DC19

{"compound": "CC1(C)CC(Cl)CN(Cc2ccccc2CN2CC(Cl)CC(C)(C)C2)C1 (stereo not drawn)", "minimal effective concentration": "< 20 µg/mL"}
{"compound": "COC(=O)c1cc(CN2CC(Cl)CC(C)(C)C2)cc(CN2CC(Cl)CC(C)(C)C2)c1 (stereo not drawn)", "minimal effective concentration": "< 20 µg/mL"}
{"compound": "Cc1cc(CN2CC(Cl)CC(C)(C)C2)cc(CN2CC(Cl)CC(C)(C)C2)c1 (stereo not drawn)", "minimal effective concentration": "< 20 µg/mL"}
{"compound": "CC1(C)CC(Cl)CN(CCCC[C@@H](C(=O)OCCc2ccccc2)N2CC(Cl)CC(C)(C)C2)C1 (stereo partly drawn)", "minimal effective concentration": "< 20 µg/mL"}
{"compound": "CC1(C)CC(Cl)CN(Cc2cc(CN3CC(Cl)CC(C)(C)C3)cc(CN3CC(Cl)CC(C)(C)C3)c2)C1 (stereo not drawn)", "minimal effective concentration": "< 20 µg/mL"}
{"compound": "CC1(C)CC(Cl)CN(Cc2cc(CN3CC(Cl)CC(C)(C)C3)cc([N+](=O)[O-])c2)C1 (stereo not drawn)", "minimal effective concentration": "< 20 µg/mL"}
{"compound": "COc1cc(CN2CC(Cl)CC(C)(C)C2)cc(CN2CC(Cl)CC(C)(C)C2)c1 (stereo not drawn)", "minimal effective concentration": "< 20 µg/mL"}
{"compound": "CN(C)c1cc(CN2CC(Cl)CC(C)(C)C2)cc(CN2CC(Cl)CC(C)(C)C2)c1 (stereo not drawn)", "minimal effective concentration": "< 20 µg/mL"}
{"compound": "CC1(C)CC(Cl)CN([C@H]2CC[C@H](N3CC(Cl)CC(C)(C)C3)CC2)C1 (stereo partly drawn)", "minimal effective concentration": "≥ 64 µg/mL"}

---

tested on: MDCK II cells; assay: In vitro cytotoxicity, CellTiter-Glo, MDCK II cells; details: 100 μM, 48 h; cell viability less than 80% relative to DMSO control = cytotoxic
observed.property: MDCKII cytotoxicity

{"molecule": "CN(C)c1cc(CN2CC(Cl)CC(C)(C)C2)cc(CN2CC(Cl)CC(C)(C)C2)c1 (centres unmarked)", "observed.property": "MDCKII cytotoxicity", "result": "+ (“+” (toxic))"}
{"molecule": "CC1(C)CC(Cl)CN(Cc2cc(CN3CC(Cl)CC(C)(C)C3)cc(CN3CC(Cl)CC(C)(C)C3)c2)C1 (centres unmarked)", "observed.property": "MDCKII cytotoxicity", "result": "− (“−” (not toxic))"}
{"molecule": "CC1(C)CC(Cl)CN(Cc2ccccc2)C1 (centres unmarked)", "observed.property": "MDCKII cytotoxicity", "result": "+ (“+” (toxic))"}
{"molecule": "CCCCN1CC(Cl)CC2(CC2)C1 (centres unmarked)", "observed.property": "MDCKII cytotoxicity", "result": "− (“−” (not toxic))"}
{"molecule": "COC(=O)c1cc(CN2CC(Cl)CC(C)(C)C2)cc(CN2CC(Cl)CC(C)(C)C2)c1 (centres unmarked)", "observed.property": "MDCKII cytotoxicity", "result": "− (“−” (not toxic))"}
{"molecule": "COC(=O)[C@H](CCCCN1CC(Cl)CC(C)(C)C1)N1CC(Cl)CC(C)(C)C1 (some centres unmarked)", "observed.property": "MDCKII cytotoxicity", "result": "− (“−” (not toxic))"}
{"molecule": "Cl[C@H]1CCCN(Cc2ccccc2)C1", "observed.property": "MDCKII cytotoxicity", "result": "− (“−” (not toxic))"}
{"molecule": "CC1(C)CC(Cl)CN(CCN2CC(Cl)CC(C)(C)C2)C1 (centres unmarked)", "observed.property": "MDCKII cytotoxicity", "result": "+ (“+” (toxic))"}
{"molecule": "CC1(C)CC(Cl)CN(Cc2cccc(CN3CC(Cl)CC(C)(C)C3)n2)C1 (centres unmarked)", "observed.property": "MDCKII cytotoxicity", "result": "+ (“+” (toxic))"}
{"molecule": "COc1ccc(CN2CC(Cl)CC(C)(C)C2)c(CN2CC(Cl)CC(C)(C)C2)c1 (centres unmarked)", "observed.property": "MDCKII cytotoxicity", "result": "+ (“+” (toxic))"}
{"molecule": "CC1(C)CC(Cl)CN(Cc2cccc(CN3CC(Cl)CC(C)(C)C3)c2)C1 (centres unmarked)", "observed.property": "MDCKII cytotoxicity", "result": "+ (“+” (toxic))"}
{"molecule": "CCCCN1CC(Cl)CC(C)(C)C1 (centres unmarked)", "observed.property": "MDCKII cytotoxicity", "result": "− (“−” (not toxic))"}
{"molecule": "Cl[C@@H]1CCCN(Cc2ccccc2)C1", "observed.property": "MDCKII cytotoxicity", "result": "− (“−” (not toxic))"}
{"molecule": "COc1cc(CN2CC(Cl)CC(C)(C)C2)cc(CN2CC(Cl)CC(C)(C)C2)c1 (centres unmarked)", "observed.property": "MDCKII cytotoxicity", "result": "− (“−” (not toxic))"}
{"molecule": "C[C@H](CCC(=O)O)C[C@H](C)C[C@H](C)C(=O)/C=C(\\O)[C@H](C)C[C@H](C)C/C=C/[C@@H](C)[C@@H](O)[C@@H](C)[C@@H](O)C[C@@H]1CC[C@@](C)([C@H]2CC[C@@](C)([C@@H](C)O)O2)O1 [ION, ionomycin, reference compound]", "observed.property": "MDCKII cytotoxicity", "result": "+ (“+” (toxic))"}
{"molecule": "COc1cc(CN2CC(O)CC(C)(C)C2)cc(CN2CC(O)CC(C)(C)C2)c1 (centres unmarked)", "observed.property": "MDCKII cytotoxicity", "result": "− (“−” (not toxic))"}
{"molecule": "CC1(C)CC(Cl)CN(Cc2cc(CN3CC(Cl)CC(C)(C)C3)cc([N+](=O)[O-])c2)C1 (centres unmarked)", "observed.property": "MDCKII cytotoxicity", "result": "− (“−” (not toxic))"}

---

system: Septoria tritici MUCL45408; assay: Minimum inhibitory concentration (MIC), S. tritici (ATP quantification); format: cell-based; settings: Zymoseptoria tritici, 96 h; S. tritici MUCL45408, 4 days; read-out: MIC St
Recorded measurements of MIC, one per entry

{"molecule": "Cl[C@@H]1CCCN(Cc2ccccc2)C1 [Compound 20]", "MIC": "> 64 µg/mL"}
{"molecule": "CC1(C)CC(Cl)CN([C@H]2CC[C@H](N3CC(Cl)CC(C)(C)C3)CC2)C1 (stereo partly drawn) [Compound 10]", "MIC": "> 64 µg/mL"}
{"molecule": "Cc1cc(CN2CC(Cl)CC(C)(C)C2)cc(CN2CC(Cl)CC(C)(C)C2)c1 (stereo not drawn) [Compound 7]", "MIC": "> 64 µg/mL"}

---

Recorded measurements of minimal effective concentration, one per entry
test system: C. elegans DC19; test: whole plant or invertebrate; type: cell-based, Caenorhabditis elegans; conditions: Caenorhabditis elegans, 48 h, read-out: MMIC DC19

{"compound": "CC1(C)CC(Cl)CN(Cc2cc(CN3CC(Cl)CC(C)(C)C3)cc([N+](=O)[O-])c2)C1 (stereo not shown) [Compound 5]", "assayed.system": "C. elegans DC19", "minimal effective concentration": "16 µg/mL"}
{"compound": "COC(=O)[C@H](CCCCN1CC(Cl)CC(C)(C)C1)N1CC(Cl)CC(C)(C)C1 (stereo partly shown) [Compound 11]", "assayed.system": "C. elegans DC19", "minimal effective concentration": "> 64 µg/mL"}
{"compound": "CC1(C)CC(Cl)CN(CCN2CC(Cl)CC(C)(C)C2)C1 (stereo not shown) [Compound 15]", "assayed.system": "C. elegans DC19", "minimal effective concentration": "> 64 µg/mL"}
{"compound": "COC(=O)c1cc(CN2CC(Cl)CC(C)(C)C2)cc(CN2CC(Cl)CC(C)(C)C2)c1 (stereo not shown) [Compound 4]", "assayed.system": "C. elegans DC19", "minimal effective concentration": "16 µg/mL"}
{"compound": "CCCCN1CC(Cl)CC(C)(C)C1 (stereo not shown) [Compound 16]", "assayed.system": "C. elegans DC19", "minimal effective concentration": "> 64 µg/mL"}
{"compound": "COc1ccc(CN2CC(Cl)CC(C)(C)C2)c(CN2CC(Cl)CC(C)(C)C2)c1 (stereo not shown) [Compound 9]", "assayed.system": "C. elegans DC19", "minimal effective concentration": "64 µg/mL"}
{"compound": "CC1(C)CC(Cl)CN(Cc2ccccc2)C1 (stereo not shown) [Compound 18]", "assayed.system": "C. elegans DC19", "minimal effective concentration": "32 µg/mL"}

---

system: Septoria tritici MUCL45408; assay: Minimum inhibitory concentration (MIC), S. tritici (ATP quantification); format: cell-based; details: Zymoseptoria tritici, 96 h; S. tritici MUCL45408, 4 days; read-out: MIC St
observed.property: MIC

{"compound": "CC1(C)CC(Cl)CN(CCCC[C@@H](C(=O)OCCc2ccccc2)N2CC(Cl)CC(C)(C)C2)C1 (some centres unmarked)", "result": "> 64 µg/mL"}
{"compound": "CCCCN1CC(Cl)CC2(CC2)C1 (centres unmarked)", "result": "> 64 µg/mL"}
{"compound": "CC(C)(C)C(O)(CCc1ccc(Cl)cc1)Cn1cncn1 (centres unmarked) [TEB, tebuconazole, reference compound]", "result": "> 0.03 µg/mL"}
{"compound": "COc1cc(CN2CC(O)CC(C)(C)C2)cc(CN2CC(O)CC(C)(C)C2)c1 (centres unmarked)", "result": "> 64 µg/mL"}
{"compound": "Cl[C@H]1CCCN(Cc2ccccc2)C1", "result": "> 64 µg/mL"}

Numbers sourced from paper PMC11718441.
